# Assay text: in vivo
# Recorded conditions: male, Wistar, rat, po, 12.5 mg/kg
# Description: Twelve male Wistar rats (120–150 g), procured from the animal facility of the Research Institute of Ophthalmology (Giza, Egypt), were arbitrarily allocated into two groups of six rats each. […] A liquid chromatography–tandem mass spectrometry (LC–MS/MS) method was employed to assay the gathered plasma samples for PRZ. […] Quantification was performed in the multiple reactions monitoring mode with m/z 313.18 → 203.10 for PRZ and m/z 285.31→193.00 for IS. […]
Observed property: Cmax (ng/mL)
All answers are understood in ng/mL, so give the number only.

Consider the compound shown here: O=C(C1CCCCC1)N1CC(=O)N2CCc3ccccc3C2C1 (stereo not shown) What is its recorded Cmax?
290
